experimental.target: PKR(wt) (Homo sapiens)
Sequence (P30613 whole entry): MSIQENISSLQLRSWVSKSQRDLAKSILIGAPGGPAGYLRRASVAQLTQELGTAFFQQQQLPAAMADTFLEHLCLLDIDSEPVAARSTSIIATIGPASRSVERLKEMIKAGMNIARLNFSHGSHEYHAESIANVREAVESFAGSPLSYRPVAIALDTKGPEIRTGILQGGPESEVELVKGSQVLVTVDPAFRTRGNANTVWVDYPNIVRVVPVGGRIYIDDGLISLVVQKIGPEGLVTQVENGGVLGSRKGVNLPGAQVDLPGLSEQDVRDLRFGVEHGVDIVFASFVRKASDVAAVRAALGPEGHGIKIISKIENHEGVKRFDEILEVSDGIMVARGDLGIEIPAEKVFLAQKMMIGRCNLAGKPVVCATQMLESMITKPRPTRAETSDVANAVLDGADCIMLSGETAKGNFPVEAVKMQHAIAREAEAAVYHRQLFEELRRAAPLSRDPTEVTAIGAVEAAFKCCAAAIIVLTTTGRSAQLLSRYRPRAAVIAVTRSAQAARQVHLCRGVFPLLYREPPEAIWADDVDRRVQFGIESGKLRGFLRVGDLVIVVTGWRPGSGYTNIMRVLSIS
assay.procedure: Luminescence Assay Protocol (Kinase Glo Plus), PKR(Wt/without FBP)
Type: biochemical
details: without FBP, highest % fold increase at any concentration, read-out: H - AC50 LUM KGP woFBP MAX % FOLD mean
Description: Example 47: PKR(Wt/without FBP), PKR(G332S/with FBP), PKR(R510Q/without FBP) The phosphorylation of Adenosine-5′-diphosphate (ADP) by various mutants of PKR was determined by the Kinase Glo Plus Assay (Promega) in the presence or absence of FBP [D-Fructose-1,6-diphosphate; BOC Sciences, CAS: 81028-91-3] as follows. […] Enzyme and PEP [Phospho(enol) pyruvic acid] were added at 2× to all wells of an assay-ready plate containing serial dilutions of test compounds or DMSO vehicle. […]
Each entry below carries its reported Emax.

Fill blank: measured Emax of the compound O=C([C@H](CO)c1ccccc1)N1CC2=C(C1)CN(S(=O)(=O)c1ccccn1)C2 [Example 51] is ____.
250 to 500%

Now this one: CC(C)(O)CC(=O)N1CC2=C(C1)CN(S(=O)(=O)c1ccc3occc3c1)C2 [Example 25]
250 to 500%

Here is the next compound: O=C(C1CCCOC1)N1CC2=C(C1)CN(S(=O)(=O)c1ccc3c(c1)NCCO3)C2 (single isomer, unassigned) [Example 33]
75 to 250%

Likewise for O=C([C@H](CO)c1ccccc1)N1CC2=C(C1)CN(S(=O)(=O)c1ccc3ncsc3c1)C2 [Example 29] ?
250 to 500%

# repeat for O=C([C@H](CO)c1ccccc1)N1CC2=C(C1)CN(S(=O)(=O)c1ccc(C(F)(F)F)nc1)C2 [Example 52]
75 to 250%

What about C[C@@H](O)[C@H](C(=O)N1CC2=C(C1)CN(S(=O)(=O)c1ccc(OC(F)F)cc1)C2)c1ccccc1 (racemic) [Example 27] ?
250 to 500%

For O=C([C@H](CO)c1ccccc1)N1CC2=C(C1)CN(S(=O)(=O)c1cnc3c(c1)OCCO3)C2 (single isomer, unassigned) [Example 1] then?
75 to 250%

// next record O=C(C(CO)c1ccccn1)N1CC2=C(C1)CN(S(=O)(=O)c1ccc(OC(F)F)cc1)C2 (single isomer, unassigned) [Example 41]
250 to 500%

Another compound: CCC(CO)(CO)C(=O)N1CC2=C(C1)CN(S(=O)(=O)c1ccc3occc3c1)C2 [Example 11]
250 to 500%

What do you get for CN1CCOc2ccc(S(=O)(=O)N3CC4=C(CN(C(=O)C5CCOC5)C4)C3)cc21 (stereo not drawn) [Example 47] ?
75 to 250%

Cool, now O=C([C@H](CO)c1ccccc1)N1CC2=C(C1)CN(S(=O)(=O)c1ccc(OC(F)F)cc1)C2 [Example 31]
250 to 500%

Quick one: O=C(CCO)N1CC2=C(C1)CN(S(=O)(=O)c1ccc3occc3c1)C2 [Example 22]
250 to 500%

And then O=C(C1COc2ccccc21)N1CC2=C(C1)CN(S(=O)(=O)c1ccc3ncsc3c1)C2 (stereo not drawn) [Example 43] , what is it?
250 to 500%

For O=C(C1CCCOC1)N1CC2=C(C1)CN(S(=O)(=O)c1cnc3c(c1)OCCO3)C2 (single isomer, unassigned) [Example 5] then?
75 to 250%

Moving on to the next compound: O=C(CCO)N1CC2=C(C1)CN(S(=O)(=O)c1ccc(OC(F)F)cc1)C2 [Example 54]
250 to 500%

# iterate: C[C@@H](O)CC(=O)N1CC2=C(C1)CN(S(=O)(=O)c1ccc3occc3c1)C2 [Example 23]
250 to 500%

Now the same for CC(C)(CO)C(=O)N1CC2=C(C1)CN(S(=O)(=O)c1ccc3occc3c1)C2 [Example 9]
75 to 250%

What do you get for O=C([C@H](CO)c1ccccc1)N1CC2=C(C1)CN(S(=O)(=O)c1ccc3c(c1)NCCO3)C2 [Example 35] ?
75 to 250%

Same question for CC(C)(CO)C(=O)N1CC2=C(C1)CN(S(=O)(=O)c1ccc3ncsc3c1)C2 [Example 19] please.
75 to 250%

Another compound to look at: CC(C)(CO)C(=O)N1CC2=C(C1)CN(S(=O)(=O)c1ccc3c(c1)NCCO3)C2 [Example 37]
75 to 250%
